Source of measurements: ChEMBL document CHEMBL3585315

Here, each record is paired with measured IC50 data.
# experimental-system: Phosphatidylinositol 4,5-bisphosphate 3-kinase catalytic subunit alpha isoform (Homo sapiens)
# Sequence (P42336 whole entry, canonical isoform): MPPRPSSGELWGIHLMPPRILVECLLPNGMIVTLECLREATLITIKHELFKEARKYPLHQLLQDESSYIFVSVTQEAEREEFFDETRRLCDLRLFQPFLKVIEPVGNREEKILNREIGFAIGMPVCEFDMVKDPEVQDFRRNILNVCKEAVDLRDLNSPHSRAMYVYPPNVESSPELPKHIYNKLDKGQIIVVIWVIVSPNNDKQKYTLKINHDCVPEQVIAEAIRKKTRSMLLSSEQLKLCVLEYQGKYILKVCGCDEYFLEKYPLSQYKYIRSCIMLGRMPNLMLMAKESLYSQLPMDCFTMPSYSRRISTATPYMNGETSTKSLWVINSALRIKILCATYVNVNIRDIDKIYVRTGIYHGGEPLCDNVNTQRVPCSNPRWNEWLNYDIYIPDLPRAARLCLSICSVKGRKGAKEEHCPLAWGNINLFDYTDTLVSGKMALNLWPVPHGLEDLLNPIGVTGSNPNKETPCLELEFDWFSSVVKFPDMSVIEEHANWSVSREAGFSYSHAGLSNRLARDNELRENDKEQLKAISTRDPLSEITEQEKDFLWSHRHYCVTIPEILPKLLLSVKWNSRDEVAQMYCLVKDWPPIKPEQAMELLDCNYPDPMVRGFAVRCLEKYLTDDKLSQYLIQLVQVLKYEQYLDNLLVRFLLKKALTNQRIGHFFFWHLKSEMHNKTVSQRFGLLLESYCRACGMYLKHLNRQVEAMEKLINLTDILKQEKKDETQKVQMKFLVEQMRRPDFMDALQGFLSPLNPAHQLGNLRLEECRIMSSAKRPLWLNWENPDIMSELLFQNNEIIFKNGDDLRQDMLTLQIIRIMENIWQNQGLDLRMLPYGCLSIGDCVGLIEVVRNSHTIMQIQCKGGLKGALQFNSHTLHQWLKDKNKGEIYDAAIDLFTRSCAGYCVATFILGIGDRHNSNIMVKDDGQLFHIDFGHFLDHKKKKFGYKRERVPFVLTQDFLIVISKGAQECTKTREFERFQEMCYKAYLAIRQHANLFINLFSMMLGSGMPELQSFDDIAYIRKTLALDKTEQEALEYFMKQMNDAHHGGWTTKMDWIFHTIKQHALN
# assay-name: Inhibition of PI3K-alpha (unknown origin) by mobility shift assay
Report the value in µM with no unit label.

[[record]]
substance_smiles = "CO[C@H]1CC[C@H](CN2C(=O)CNc3ncc(-c4ccc(C(C)(C)O)nc4)nc32)CC1"
unit = "µM"
quantitative_readout = 4.7

[[record]]
substance_smiles = "CC(C)(O)c1ccc(-c2cnc3c(n2)N(C2CCOCC2)CC(=O)N3)cn1"
unit = "µM"
quantitative_readout = 4.7

[[record]]
substance_smiles = "COCCN1C(=O)CNc2ncc(-c3ccc(C(C)(C)O)nc3)nc21"
unit = "µM"
quantitative_readout = 6.2

[[record]]
substance_smiles = "O=C1CNc2ncc(-c3ccc(-c4ncn[nH]4)cc3)nc2N1CCC1CCOCC1"
unit = "µM"
quantitative_readout = 0.1

[[record]]
substance_smiles = "O=C1CN(CCC2CCOCC2)c2nc(-c3ccc(-c4nc[nH]n4)nc3)cnc2N1"
unit = "µM"
quantitative_readout = 1.6

[[record]]
substance_smiles = "CO[C@H]1CC[C@@H](CN2CC(=O)Nc3ncc(-c4ccc(C(C)(C)O)nc4)nc32)CC1"
unit = "µM"
quantitative_readout = 7.6

[[record]]
substance_smiles = "CO[C@H]1CC[C@H](N2CC(=O)Nc3ncc(-c4ccc(C(C)(C)O)nc4)nc32)CC1"
unit = "µM"
quantitative_readout = 16.4

[[record]]
substance_smiles = "CO[C@H]1CC[C@H](CN2CC(=O)Nc3ncc(-c4ccc(C(C)(C)O)nc4)nc32)CC1"
unit = "µM"
quantitative_readout = 20.2

[[record]]
substance_smiles = "Cc1cc(-c2nc[nH]n2)ccc1-c1cnc2c(n1)N(CCC1CCOCC1)C(=O)CN2"
unit = "µM"
quantitative_readout = 0.12

[[record]]
substance_smiles = "CC(C)(O)c1ccc(-c2cnc3c(n2)N(CC2CCCCC2)CC(=O)N3)cn1"
unit = "µM"
quantitative_readout = 17.7


Next compound, IC50 to be filled in.
Exam item: Given the entry `CO[C@H]1CC[C@@H](CN2C(=O)CNc3ncc(-c4ccc(C(C)(C)O)nc4)nc32)CC1` , report its measured IC50.
Marked response: 2.5

###

# assay-name: Cmax in rat at 5 mg/kg, po
# Type: ADME, organism-based
# Parameters: dose 5 mg/kg, route oral
# condition-description: in vivo
Reported Cmax values are given for each entry in this list.
Give just the number in nM; leave the unit off.

Exam item: Can you look up the measured Cmax of `CO[C@H]1CC[C@@H](N2CC(=O)Nc3ncc(-c4ccc(C(C)(C)O)nc4)nc32)CC1` for me?
Marked response: 2770

Exam item: For the molecule `CO[C@H]1CC[C@H](N2CC(=O)Nc3ncc(-c4ccc(C(C)(C)O)nc4)nc32)CC1` , what Cmax is on record?
Marked response: 6300

Exam item: I have this molecule here, `CC(C)(O)c1ccc(-c2cnc3c(n2)N(CCC2CCOCC2)C(=O)CN3)cn1` , and I need its recorded Cmax.
Marked response: 1700

Exam item: For `COCCN1C(=O)CNc2ncc(-c3ccc(C(C)(C)O)nc3)nc21` , what is its reported Cmax?
Marked response: 5600

Exam item: Fill blank: measured Cmax of the molecule `CO[C@H]1CC[C@H](CN2CC(=O)Nc3ncc(-c4ccc(C(C)(C)O)nc4)nc32)CC1` is ____.
Marked response: 700
